- Test system: OVCAR-5
- assay.remarks: NCI tumour cell line growth inhibition, 48 h
Active and inactive are the calls of the source. No stated cut-off is given here; in the data, active = GI50 up to about 1.1 µM and inactive = higher.

# molecule, tested.on, GI50
rows = [
    ("CCn1c2ccccc2c2nnc(NCCCO)nc21", "OVCAR-5", "> 100 µM (inactive)"),
    ("CCCNC1=C2C[C@@H](C)C[C@@H](OC)[C@@H](OC(=O)CCCN)[C@H](C)/C=C(\\C)[C@@H](OC(N)=O)[C@H](OC)/C=C\\C=C(/C)C(=O)NC(=CC1=O)C2=O", "OVCAR-5", "15.2 µM (inactive)"),
    ("O=C(c1c(F)c(F)c(F)c(F)c1F)N1CCN(C(=O)c2c(F)c(F)c(F)c(F)c2F)C1=S", "OVCAR-5", "15.6 µM (inactive)"),
    ("CC(=O)Oc1c(OC(C)=O)c(-c2ccc(O)c(O)c2)c(O)c(O)c1-c1ccc(O)cc1", "OVCAR-5", "> 100 µM (inactive)"),
    ("N[C@H](C(=O)O)[C@H](Cl)CC(=O)O", "OVCAR-5", "> 100 µM (inactive)"),
    ("O=C1NC(O)c2cc3ccccc3cc2O1 (stereo not given)", "OVCAR-5", "> 100 µM (inactive)"),
    ("NC1CCC(N(CC(=O)O)CC(=O)O)C(N(CC(=O)O)CC(=O)O)C1 (stereo not given)", "OVCAR-5", "> 100 µM (inactive)"),
    ("N#C/C1=C(\\N)CCSSSC1", "OVCAR-5", "53.1 µM (inactive)"),
    ("COc1ccccc1NC(=O)CC(=O)NN", "OVCAR-5", "> 100 µM (inactive)"),
    ("C1CN2CCNCCN(CCN1)CC2", "OVCAR-5", "> 100 µM (inactive)"),
    ("O=C(c1ccccc1)C(c1ccccc1)C1(O)C(=O)Nc2ccccc21 (stereo not given)", "OVCAR-5", "> 100 µM (inactive)"),
    ("CC(C)c1cccc(C(=O)NCCN(C)C)c1[N+](=O)[O-]", "OVCAR-5", "> 100 µM (inactive)"),
    ("COc1ccc(N2C(=O)C3ON(Cc4ccc(CC(N)=O)cc4)C(c4c5ccccc5c(C)c5ccccc45)C3C2=O)cc1 (stereo not given)", "OVCAR-5", "27 µM (inactive)"),
    ("Cc1nnc2n1N=C(c1ccc(-c3ccc([N+](=O)[O-])cc3)o1)CS2", "OVCAR-5", "> 100 µM (inactive)"),
    ("O=C(C#Cc1cnc(O)nc1O)c1ccccc1Cl", "OVCAR-5", "19.7 µM (inactive)"),
    ("C[n+]1[n-]o/c(=N\\N=O)c1-c1cc(-c2/c(=N/N=O)o[n-][n+]2C)cc(-c2/c(=N\\N=O)o[n-][n+]2C)c1", "OVCAR-5", "> 100 µM (inactive)"),
    ("CC1CCC(C(C)C)C(O[C@@H]2OC(=O)C[C@@H]2Sc2ccccc2)C1 (stereo not given in full)", "OVCAR-5", "43 µM (inactive)"),
    ("C1CNCCN2CCCNCCN(C1)CC2", "OVCAR-5", "> 100 µM (inactive)"),
    ("O=C(O)C(CS)NCc1c2ccccc2[n+]([O-])c2ccccc12 (stereo not given)", "OVCAR-5", "> 100 µM (inactive)"),
    ("Oc1[nH]c(Nc2ccc(Cl)cc2)nc2ncnc1-2", "OVCAR-5", "> 100 µM (inactive)"),
    ("CC(C)(C)NNC(=O)CCn1[nH]c(=O)c(Cl)c(Cl)c1=O", "OVCAR-5", "> 100 µM (inactive)"),
    ("COC(=O)C1CCN(C(=O)OC(C)(C)C)CC1", "OVCAR-5", "> 100 µM (inactive)"),
    ("CC(O)C1CC1(CO)CNc1cc(Cl)nc(N)n1 (stereo not given)", "OVCAR-5", "> 100 µM (inactive)"),
    ("C=Cc1nc2nnc(CCCCCCCCc3nnc4nc(C=C)[nH]n34)n2[nH]1", "OVCAR-5", "> 100 µM (inactive)"),
    ("COC(=O)c1cc(=O)n(-c2ccc3nn(C)nc3c2)cc1C(=O)OC", "OVCAR-5", "> 100 µM (inactive)"),
    ("C=C([C@@]1(O)C[C@H]2[C@H](CCC2(OC)OC)[C@@H]2c3ccccc3O[C@@H]21)[Si](C)(C)C", "OVCAR-5", "> 100 µM (inactive)"),
    ("Cc1c2ccncc2c(C)c2c1[nH]c1ccc(O)c(OCC(F)(F)F)c12", "OVCAR-5", "12.6 µM (inactive)"),
    ("CCOC(=O)c1cc(C2(O)CCN(CC(C)CC)C2=O)c(-c2cc(C)no2)[nH]1 (stereo not given)", "OVCAR-5", "> 100 µM (inactive)"),
    ("O=C(C#Cc1ccccc1)N1CCCCC1", "OVCAR-5", "> 100 µM (inactive)"),
    ("Nc1ccc(/N=N/c2c(S(=O)(=O)O)cc3ccccc3c2S(=O)(=O)O)cc1", "OVCAR-5", "> 100 µM (inactive)"),
    ("Cc1ccc(NC(=O)CC(=O)n2nc(-c3ccccc3)c(/N=N/c3ccccc3C(=O)O)c2-c2ccccc2)cc1", "OVCAR-5", "> 100 µM (inactive)"),
    ("CC(C)(C)OC(=O)N1N=NC2C1C1CC(OCc3ccccc3)(OCc3ccccc3)C2O1 (stereo not given)", "OVCAR-5", "> 100 µM (inactive)"),
    ("O=C(CNc1ccc(Cl)cc1Cl)Nn1c(-c2ccccc2)nc2ccccc2c1=O", "OVCAR-5", "23 µM (inactive)"),
    ("CCCCCCCCCCc1c2nc(c(CCCCCCCCCC)c3ccc([nH]3)c(CCCCCCCCCC)c3nc(c(CCCCCCCCCC)c4ccc1[nH]4)C=C3)C=C2", "OVCAR-5", "> 100 µM (inactive)"),
    ("O=S(=O)(c1ccc2ccccc2c1)N1CCN(S(=O)(=O)c2ccc3ccccc3c2)CC1", "OVCAR-5", "> 100 µM (inactive)"),
    ("CC1=CC(C)(C)N=C2SC(c3ccc(Cl)cc3)=NN12", "OVCAR-5", "17.6 µM (inactive)"),
    ("CC(C)=CC[C@]12CCN(C)[C@H]1N(S(=O)(=O)c1ccccc1)c1ccccc12", "OVCAR-5", "> 59.8 µM (inactive)"),
    ("CCOC(=O)CCN1C(=O)c2ccc(NC(=O)C(=O)O)cc2S1(=O)=O", "OVCAR-5", "> 100 µM (inactive)"),
    ("COC1CC(OC2C(C)OC(OC3C(C)OC(OC4C(C)OC(O[C@H]5CC[C@@]6(C)C(=CC[C@]7(O)[C@@H]6C[C@@H](O)[C@@]6(C)[C@]7(O)CC[C@@]6(O)C(C)=O)C5)CC4OC)CC3OC)CC2OC)OC(C)C1O (stereo not given in full)", "OVCAR-5", "> 12.5 µM (inactive)"),
    ("COc1ccc2c(c1)CCN1CCCc3ccccc3C21 (stereo not given)", "OVCAR-5", "42.9 µM (inactive)"),
]
